Test: melting temperature; fluorescence melt of hairpins on a sequencing array, two-state fit, raised by 9.35 °C to match UV melts
Conditions: sodium 0.088 M
Can you tell me Tm for the items I'm about to list?
# value in °C; strip the unit string

Sure, the documented Tm for GAAGGACGAAAGTCTTTC (((.(((....))).))) is 46.3

Sure, the documented Tm for GATCTTTGACAAGATC ((((((....)))))) is 39.4

Sure, the documented Tm for GAGAGTGGAAACACCCTC (((.(((....))).))) is 36

Sure, the documented Tm for GATCCAAATTTGGATC ((((((....)))))) is 52.9

Sure, the documented Tm for GGAATTGGAAACAATTCC (((((((....))))))) is 56.3

Sure, the documented Tm for GATCAGCGGCTGATC ((((((...)))))) is 50.7

Sure, the documented Tm for GCCCATGGAAACACGGGC ((((.((....)).)))) is 49.4

Sure, the documented Tm for GACGTGGCGAAAGCCGTC (((..(((....)))))) is 50.4

Sure, the documented Tm for GCTGACACGAAAGTGAGC (((..(((....)))))) is 40.3

Sure, the documented Tm for GCGTTAGACGC ((((...)))) is 51.3

Sure, the documented Tm for GTTCACCGAAAGGTAAC (((.(((....)))))) is 36.3

Sure, the documented Tm for GATCAACCGAAAGGTATC (((..(((....)))))) is 25.6

Sure, the documented Tm for GAGGTAGGAAACTACCCC (.(((((....))))).) is 39.1

Sure, the documented Tm for CGAGCGGAAACGCCGTCG ((((((....)))..))) is 55

Sure, the documented Tm for GACTTGCGAAAGCAGGTC (((.(((....))).))) is 60

Sure, the documented Tm for GTTCCAGGAAACTGGAAC (((((((....))))))) is 60.4

Sure, the documented Tm for GTGCCCGAAAGGGTGCAC ((((((....)))..))) is 55.3

Sure, the documented Tm for GGCAACGAAAGTTCAGCC ((((((....)))..))) is 41.1

###

Can you tell me Tm for the items I'm about to list?
Test: melting temperature; fluorescence melt of hairpins on a sequencing array, two-state fit, raised by 9.35 °C to match UV melts
Details: sodium 0.088 M
# value in °C; strip the unit string

Sure, the documented Tm for GCCGCGCGAAAGCATGGC (((..((....))..))) is 60.1

Sure, the documented Tm for GAATTGCGAAAGCACTTC (((.(((....))).))) is 40.7

Sure, the documented Tm for GATCACATAAGTGATC ((((((....)))))) is 58.9

Sure, the documented Tm for GCGACGCGAAAGCCTCGC ((((.((....)).)))) is 60.4

Sure, the documented Tm for GCGGGCGAAAGCCACCGC ((((((....)))..))) is 59.2

Sure, the documented Tm for GCCCCCCGAAAGGGCGGC (((.(((....))).))) is 60.2

Sure, the documented Tm for GGGTGAGAAATCACCC ((((((....)))))) is 61.6

Sure, the documented Tm for GATCGTGTCCACGATC ((((((....)))))) is 60.3

###

Assay: melting temperature; fluorescence melt of hairpins on a sequencing array, two-state fit, raised by 9.35 °C to match UV melts
Conditions: sodium 0.088 M
Can you tell me Tm for the items I'm about to list?
# value in °C; strip the unit string

Sure, the documented Tm for GATCCATAATGGATC ((((((...)))))) is 49.6

Sure, the documented Tm for GGGACTCCGAAAGGACCC (((..(((....)))))) is 41.5

Sure, the documented Tm for GTCATGACGAAAGTCGAC (((..(((....)))))) is 38.6

Sure, the documented Tm for GTACACGAAAGTGAATAC ((((((....)))..))) is 28.6

Sure, the documented Tm for GCGAACCGAAAGGTACGC (((.(((....))).))) is 64.3

Sure, the documented Tm for GTACCCCGAAAGGGTAC (((.(((....)))))) is 58.3

Sure, the documented Tm for GATCACACGGGTGATC ((((((....)))))) is 57.1

Sure, the documented Tm for GATCCTCTTAGGATC ((((((...)))))) is 55.2

Sure, the documented Tm for GTGAGTGGAAACGTTCAC ((((..(....)..)))) is 28.4

Sure, the documented Tm for GCGATTCCTCGC ((((....)))) is 49.5

###

Experiment: melting temperature; fluorescence melt of hairpins on a sequencing array, two-state fit, raised by 9.35 °C to match UV melts
Conditions: sodium 0.088 M
Value type: Tm (°C)
# value in °C; strip the unit string

Sure, the documented Tm for GATTAGGAAACTAATC ((((((....)))))) is 43.9

Sure, the documented Tm for GAGCGTGGAAACACGTTC ((.((((....)))).)) is 52.5

Sure, the documented Tm for CGCACCCGGAAACGGGCG (((..(((....)))))) is 46.1

Sure, the documented Tm for GGGCGCGGAAACACGCCC (((((.(....).))))) is 66.5

Sure, the documented Tm for GGTTGTGGAAACACAGTC (..((((....))))..) is 29.1

Sure, the documented Tm for GGTAGTGGAAACGTTACC ((((..(....)..)))) is 34.5

Sure, the documented Tm for GGCCTAGGAAACTAGGCC (((((((....))))))) is 68.6

Sure, the documented Tm for GCTGAGCGAAAGCGGAGC (((..((....))..))) is 62.4

Sure, the documented Tm for GATCTTAGCAAAGATC ((((((....)))))) is 42.4

Sure, the documented Tm for GCCCTAGGAAACTAGAGC ((.((((....)))).)) is 34.3

Sure, the documented Tm for GCGTGCGAACGC ((((....)))) is 69

Sure, the documented Tm for GAAAGGCCGAAAGGCTTC (((..(((....)))))) is 28.5

Sure, the documented Tm for GTGAACGAAAGTTCCAC ((((((....))).))) is 39.9

Sure, the documented Tm for GAGAGAGCGAAAGCTCTC (((..(((....)))))) is 56.7

Sure, the documented Tm for GCTGTGCGAAAGCTCGGC ((.(.((....)).).)) is 56

Sure, the documented Tm for GCTATGCGAAAGCCTCGC ((.(.((....)).).)) is 32.2

Sure, the documented Tm for GATCGTCCCGACGATC ((((((....)))))) is 59.8

Sure, the documented Tm for GCGGGACGAAAGTCCGC (((.(((....)))))) is 69.2

Sure, the documented Tm for GTTCCGGGAAACTGGAGC (.(((.(....).))).) is 36.1

Sure, the documented Tm for GATCACTCCAGTGATC ((((((....)))))) is 58.4

Sure, the documented Tm for GGCGCCGCGAAAGCGGCC (((..(((....)))))) is 49.1

Sure, the documented Tm for GCTTGGCGAAAGCTATGC ((.(.((....)).).)) is 47.9

Sure, the documented Tm for TCCTTGAAAAAGGA (((((....))))) is 35.1

Sure, the documented Tm for CGATCGGAAACGATTTCG ((((((....)))..))) is 30.2

Sure, the documented Tm for GTTAGAGGAAACTCTAGC (.(((((....))))).) is 34.5

Sure, the documented Tm for GTTATGGGAAACCATAGC (.(((((....))))).) is 36.9

Sure, the documented Tm for GGTAACGAAAGTTAAACC ((((((....)))..))) is 32.3

Sure, the documented Tm for GATCGACTGTCGATC ((((((...)))))) is 51.4

Sure, the documented Tm for GGCGAAGGAAACTTCACC ((.((((....)))).)) is 42.6

Sure, the documented Tm for GGTCATGGAAACATGATC (.(((((....))))).) is 47

Sure, the documented Tm for GGATCAGCGAAAGCTTCC (((..(((....)))))) is 30.7

Sure, the documented Tm for GCGTACCGACGC ((((....)))) is 50.9

Sure, the documented Tm for GGGATCGGAAACGGTCCC ((((.((....)).)))) is 57.8

Sure, the documented Tm for GGAACAGGAAACTGTTCC (((((((....))))))) is 60.6

Sure, the documented Tm for GGAACCGGAAACGGTCCC ((.((((....)))).)) is 52.9
